- Test system: BJAB lymphoma cells
- protocol summary: Apoptosis induction, flow cytometric hypodiploid DNA (DNA fragmentation)
- Type: cell-based, human
- cond: 72 hours, read-out: LC50, apoptosis by DNA fragmentation
readout name: CC50

Exercise: Record request: CC50 value, item "[Ga+3].[O-]c1cccc2cccnc12.[O-]c1cccc2cccnc12.[O-]c1cccc2cccnc12"
Key: ~1 µM

====

- System: OPM-2 multiple myeloma cells
- protocol summary: Anti-proliferation assay, Cell Titer-Glo (Example 3)
- Format: cell-based, human
- cond: 96 hours total culture
readout name: IC50 (nM)
Record the value in nM, omitting the unit from your answer.

Exercise: Record request: IC50 value, item [Ga+3].[O-]c1cccc2cccnc12.[O-]c1cccc2cccnc12.[O-]c1cccc2cccnc12 [tris(8-quinolinolato)gallium(III)]
Key: 740
